# tested_on: TYK2 (Homo sapiens (Human), UniProt P29597)
# Sequence (P29597 897-1176): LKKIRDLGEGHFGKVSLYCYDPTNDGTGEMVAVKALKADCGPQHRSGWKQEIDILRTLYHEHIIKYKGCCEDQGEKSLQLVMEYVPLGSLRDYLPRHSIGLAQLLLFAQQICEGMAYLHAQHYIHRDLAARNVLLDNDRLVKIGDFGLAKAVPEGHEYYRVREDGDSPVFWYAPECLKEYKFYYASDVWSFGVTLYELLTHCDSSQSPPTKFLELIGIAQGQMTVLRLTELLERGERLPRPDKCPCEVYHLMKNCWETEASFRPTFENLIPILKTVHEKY
# assay_remarks: JAK Family Caliper Enzyme Assay (TYK2)
# Format: biochemical
# measurement_parameters: recombinant human kinase domain, 1 mM ATP
# Method: JAK Family Caliper Enzyme Assay Compounds of the invention were evaluated by in vitro methods to determine their respective ability to inhibit the JAK kinases (TYK2, JAK1, JAK2, JAK3). Inhibitory activity was determined by using a microfluidic assay (LabChip 3000™ mobility shift technology, Caliper Life Science) to monitor phosphorylation of a synthetic peptide by the recombinant human kinase domain of each of the four members of the JAK family, JAK1, JAK2, JAK3 and TYK2. […]
metric_name: IC50 (nM)

Some entries whose results are on file:
In [3]: df
Out[3]:
                                 smiles_str  metric_name  numeric_result
0  C[C@H](O)Cn1cc(Nc2nccc(N3C[C@H]4CC[C@@H](C3)N4C(=O)[C@@H]3CC3(F)F)n2)cn1         IC50              65
1  CCCn1cc(Nc2nccc(N3C[C@H]4CC[C@@H](C3)N4C(=O)[C@@H]3CC3(F)F)n2)cn1         IC50              37

I = O=C([C@@H]1CC1(F)F)N1[C@@H]2CC[C@H]1CN(c1ccnc(Nc3cnn(CCCO)c3)n1)C2
II = C[C@@H](O)Cn1cc(Nc2nccc(N3C[C@H]4CC[C@@H](C3)N4C(=O)[C@@H]3CC3(F)F)n2)cn1
INPUT: Returns: the argument ( I or II ) having the larger IC50. Give the label of your selection.
OUTPUT: II

Just for reference, patent US11655252B2 is where these values come from.
